- TEST_SYSTEM: Muscarinic acetylcholine receptor
- ASSAY_OVERVIEW: Binding activity to the muscarinic acetylcholine receptor in rat cortex, assayed using [3H]PZ as a radioligand.
- Assay type: tissue-based
READOUT: Ki (nM)

The following molecules have reported results that may help.
Entry `O=CN1CCC[C@H]1C#CCN1CCCC1` , Ki reported as 1230

Entry `Cl.O=C(N1CCC[C@@H]1C#CCN1CCCC1)C(F)(F)F` , Ki reported as 140

Entry `CC(=O)N1CCC[C@@H]1C#CCN1CCCC1.Cl` , Ki reported as 170

Entry `CN(C)CC#C[C@@H]1CCCN1.Cl.Cl` , Ki reported as 13200

Entry `CS(=O)(=O)N1CCC[C@@H]1C#CCN1CCCC1.Cl` , Ki reported as 4110

Entry `COC(=O)N1CCC[C@@H]1C#CCN1CCCC1` , Ki reported as 1590

Entry `CC(=O)N1CCC[C@H]1C#CC[N+](C)(C)C` , Ki reported as 13900

Entry `O=C1CCCN1CC#CCN1CCCC1` , Ki reported as 140

Entry `CCOC(=O)N1CCC[C@H]1C#CCN1CCCC1` , Ki reported as 100

Entry `CN(C)CC#C[C@@H]1CCCN1C(=O)OC(C)(C)C` , Ki reported as 9040

I: C(#C[C@H]1CCCN1)CN1CCCC1.Cl.Cl
II: CC(C)(C)OC(=O)N1CCC[C@@H]1C#CCN1CCCC1
Compare Ki: is it lower for I or for II ? Kindly state the label of the option you pick.
II

###

- TEST_SYSTEM: Muscarinic acetylcholine receptor
- ASSAY_OVERVIEW: Binding activity against Muscarinic acetylcholine receptor in rat cortex, using [3H]QNB as a radioligand.
- Type: tissue-based
READOUT: Ki (µM)

The following molecules have reported results that may help.
Entry `CC(C)(C)OC(=O)N1CCC[C@@H]1C#CCN1CCCC1` , Ki reported as 0.66

Entry `CC(=O)N1CCC[C@@H]1C#CCN(C)C` , Ki reported as 13.8

Entry `COC(=O)N1CCC[C@H]1C#CCN1CCCC1` , Ki reported as 0.62

Entry `CS(=O)(=O)N1CCC[C@H]1C#CCN1CCCC1.Cl` , Ki reported as 3.02

Entry `O=C1CCCN1CC#CCN1CCCC1` , Ki reported as 0.06

a: C(#C[C@H]1CCCN1)CN1CCCC1.Cl.Cl
b: CN(C)CC#C[C@H]1CCCN1.Cl.Cl
Compare Ki: is it lower for a or for b ? Kindly state the label of the option you pick.
a

###

- TEST_SYSTEM: UniProtKB P08482
- Sequence (P08482 whole entry): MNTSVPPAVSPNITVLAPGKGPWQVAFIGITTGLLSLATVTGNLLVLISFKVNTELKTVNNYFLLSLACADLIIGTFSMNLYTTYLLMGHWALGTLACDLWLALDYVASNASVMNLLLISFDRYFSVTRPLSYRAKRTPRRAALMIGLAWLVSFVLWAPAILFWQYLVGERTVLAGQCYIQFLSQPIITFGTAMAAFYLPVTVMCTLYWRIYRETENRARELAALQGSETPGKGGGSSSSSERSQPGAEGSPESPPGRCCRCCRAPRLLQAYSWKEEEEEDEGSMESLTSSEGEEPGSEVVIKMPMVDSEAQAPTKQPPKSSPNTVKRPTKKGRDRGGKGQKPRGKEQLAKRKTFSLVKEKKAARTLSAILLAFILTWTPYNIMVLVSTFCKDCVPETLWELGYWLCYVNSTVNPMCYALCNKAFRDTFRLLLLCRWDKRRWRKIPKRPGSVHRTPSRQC
- ASSAY_OVERVIEW: Muscarinic 1 receptor agonistic activity as the selectivity ratio of Ki against [3H]-QNB+ Gpp(NH)p to that of [3H]PZ
- Assay type: functional
READOUT: Ratio

The following compounds have reported results that may help.
Entry `COC(=O)N1CCC[C@@H]1C#CCN1CCCC1` , Ratio reported as 3.2

Entry `CS(=O)(=O)N1CCC[C@@H]1C#CCN1CCCC1.Cl` , Ratio reported as 3.3

Entry `CCOC(=O)N1CCC[C@@H]1C#CCN1CCCC1` , Ratio reported as 5.5

Entry `C(#C[C@@H]1CCCN1)CN1CCCC1.Cl.Cl` , Ratio reported as 0.9

P: CC(=O)N1CCC[C@@H]1C#CCN(C)C
Q: Cl.O=C(N1CCC[C@H]1C#CCN1CCCC1)C(F)(F)F
R: CC(C)(C)OC(=O)N1CCC[C@@H]1C#CCN1CCCC1
Arrange by Ratio, high to low. Write the labels in rank order as requested.
P, R, Q

Ref: ChEMBL document CHEMBL1125029
